target: XIAP BIR1/2 (Homo sapiens (Human), UniProt P98170); experiment: XIAP BIR1/2 Ki; type: binding; details: Table B-1
Sequence (P98170 1-240): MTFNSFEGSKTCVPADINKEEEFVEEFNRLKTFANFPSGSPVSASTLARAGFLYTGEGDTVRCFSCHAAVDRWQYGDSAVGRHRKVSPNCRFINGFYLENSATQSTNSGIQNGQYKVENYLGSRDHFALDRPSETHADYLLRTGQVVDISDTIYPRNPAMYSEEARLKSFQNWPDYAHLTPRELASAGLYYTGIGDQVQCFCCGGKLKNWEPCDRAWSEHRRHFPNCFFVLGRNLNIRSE
pKi: −log10 of the molar value.
Measured pKi accompanies every entry in the list below.

CN[C@@H](C)C(=O)N[C@H]1CO[C@H]2CCC(C(=O)NC3CCCc4ccccc43)N2C1=O (stereo partly shown) ... < 4.30
CN[C@@H](C)C(=O)N[C@H]1CO[C@H]2CCC(C(=O)Nc3ccc(Cl)cc3)N2C1=O (stereo partly shown) ... < 4.30
CN[C@@H](C)C(=O)N[C@H]1CC(=O)N[C@H]2CC(C)(C)C(C(=O)N[C@@H]3CCCc4ccccc43)N2C1=O (stereo partly shown) ... < 4.30

[ask] # query: pKi of entry CN[C@@H](C)C(=O)N[C@@H]1C(=O)N2C(C(=O)NC3CCCc4ccccc43)CC[C@@H]2O[C@@H]1C (stereo partly shown)
[reply] < 4.30

[ask] pKi lookup needed for CN[C@@H](C)C(=O)N[C@H]1CCCN(C(C)=O)C2CCC(C(=O)NC3CCCc4ccccc43)N2C1=O (stereo partly shown) , thanks.
[reply] < 4.30

[ask] Given the entry CN[C@@H](C)C(=O)N[C@H]1CO[C@H]2CCC(C(=O)NCc3ccccc3)N2C1=O (stereo partly shown) , report its measured pKi.
[reply] < 4.30

[ask] Which measured pKi value corresponds to CN[C@@H](C)C(=O)N[C@H]1Cc2c([nH]c3ccccc23)[C@H]2CCC(C(=O)N[C@@H]3CCCc4ccccc43)N2C1=O (stereo partly shown) [Compound 31] ?
[reply] ≥ 4.60
